Reference for the values: paper PMC4081582

- Test description: Transport of geniposide across the HNEC monolayer
- Format: in vitro ADME, human
- Condition label: human, Ge 50 µg·mL^−1 +Bo 111.2 µg·mL^−1
Measurement label: Papp B→A at 180 min, 50 µg·mL^−1 (×10⁻⁶ cm/s)
Use ×10⁻⁶ cm/s as the unit, but write only the number.

Measured Papp B→A at 180 min, 50 µg·mL^−1 of COC(=O)C1=CO[C@@H](O[C@@H]2O[C@H](CO)[C@@H](O)[C@H](O)[C@H]2O)[C@@H]2C(CO)=CC[C@H]12 [geniposide, Geniposide] : 1.99

---

- Test description: Transport of geniposide across the HNEC monolayer
- Format: in vitro ADME, human
- Condition label: human, Ge 50 µg·mL^−1 +Mu 8.34 µg·mL^−1
Measurement label: Papp B→A at 180 min, 50 µg·mL^−1 (nm/s)
Use nm/s as the unit, but write only the number.

Measured Papp B→A at 180 min, 50 µg·mL^−1 of COC(=O)C1=CO[C@@H](O[C@@H]2O[C@H](CO)[C@@H](O)[C@H](O)[C@H]2O)[C@@H]2C(CO)=CC[C@H]12 [geniposide, Geniposide] : 20.4

---

- Test description: Transport of geniposide across the HNEC monolayer
- Type: in vitro ADME, human
- Condition label: human, Ge 50 µg·mL^−1 +Bo 27.8 µg·mL^−1
Measurement label: Papp B→A at 180 min, 50 µg·mL^−1 (×10⁻⁶ cm/s)
Use ×10⁻⁶ cm/s as the unit, but write only the number.

Measured Papp B→A at 180 min, 50 µg·mL^−1 of COC(=O)C1=CO[C@@H](O[C@@H]2O[C@H](CO)[C@@H](O)[C@H](O)[C@H]2O)[C@@H]2C(CO)=CC[C@H]12 [geniposide, Geniposide] : 1.61

---

- Test description: Transport of geniposide across the HNEC monolayer
- Format: in vitro ADME, human
- Condition label: human, Ge 50 µg·mL^−1 +Mu 16.68 µg·mL^−1
Measurement label: Papp B→A at 180 min, 50 µg·mL^−1 (nm/s)
Use nm/s as the unit, but write only the number.

Measured Papp B→A at 180 min, 50 µg·mL^−1 of COC(=O)C1=CO[C@@H](O[C@@H]2O[C@H](CO)[C@@H](O)[C@H](O)[C@H]2O)[C@@H]2C(CO)=CC[C@H]12 [geniposide, Geniposide] : 21

---

- Test description: Transport of geniposide across the HNEC monolayer
- Type: in vitro ADME, human
- Condition label: human, Ge 50 µg·mL^−1 +Bo 27.8 µg·mL^−1
Measurement label: Papp A→B at 180 min, 50 µg·mL^−1 (×10⁻⁶ cm/s)
Use ×10⁻⁶ cm/s as the unit, but write only the number.

Measured Papp A→B at 180 min, 50 µg·mL^−1 of COC(=O)C1=CO[C@@H](O[C@@H]2O[C@H](CO)[C@@H](O)[C@H](O)[C@H]2O)[C@@H]2C(CO)=CC[C@H]12 [geniposide, Geniposide] : 1.17

---

- Test description: Transport of geniposide across the HNEC monolayer
- Format: in vitro ADME, human
- Condition label: human, geniposide 50 µg·mL^−1 alone (control)
- Description: When HNECs reached approximately 80–90% confluence, the cells were detached with trypsin and were seeded at a density of 2×10^5 cells·cm^−2 on PET inserts. […] The transport experiments were carried out when transepithelial electrical resistance (TEER) value was higher than 500 Ω·cm^2. […] Basolateral (B) → apical (A) transport was evaluated by adding 1.5 mL of drug solution in B side and 0.5 mL of HBSS in A side. […] Each measurement was evaluated in triplicate. […]
Measurement label: Papp B→A at 180 min, 50 µg·mL^−1 (×10⁻⁶ cm/s)
Use ×10⁻⁶ cm/s as the unit, but write only the number.

Measured Papp B→A at 180 min, 50 µg·mL^−1 of COC(=O)C1=CO[C@@H](O[C@@H]2O[C@H](CO)[C@@H](O)[C@H](O)[C@H]2O)[C@@H]2C(CO)=CC[C@H]12 [geniposide, Geniposide] : 1.26

---

- Test description: Transport of geniposide across the HNEC monolayer
- Type: in vitro ADME, human
- Condition label: human, Ge 50 µg·mL^−1 +Bo 55.6 µg·mL^−1
Measurement label: Papp B→A at 180 min, 50 µg·mL^−1 (×10⁻⁶ cm/s)
Use ×10⁻⁶ cm/s as the unit, but write only the number.

Measured Papp B→A at 180 min, 50 µg·mL^−1 of COC(=O)C1=CO[C@@H](O[C@@H]2O[C@H](CO)[C@@H](O)[C@H](O)[C@H]2O)[C@@H]2C(CO)=CC[C@H]12 [geniposide, Geniposide] : 1.92

---

- Test description: Transport of geniposide across the HNEC monolayer
- Type: in vitro ADME, human
- Condition label: human, Ge 50 µg·mL^−1 +Bo 111.2 µg·mL^−1 Mu 16.68 µg·mL^−1
- Experimental: When HNECs reached approximately 80–90% confluence, the cells were detached with trypsin and were seeded at a density of 2×10^5 cells·cm^−2 on PET inserts. […] The transport experiments were carried out when transepithelial electrical resistance (TEER) value was higher than 500 Ω·cm^2. […] Basolateral (B) → apical (A) transport was evaluated by adding 1.5 mL of drug solution in B side and 0.5 mL of HBSS in A side. […] Each measurement was evaluated in triplicate. […]
Measurement label: Papp A→B at 180 min, 50 µg·mL^−1 (×10⁻⁶ cm/s)
Use ×10⁻⁶ cm/s as the unit, but write only the number.

Measured Papp A→B at 180 min, 50 µg·mL^−1 of COC(=O)C1=CO[C@@H](O[C@@H]2O[C@H](CO)[C@@H](O)[C@H](O)[C@H]2O)[C@@H]2C(CO)=CC[C@H]12 [geniposide, Geniposide] : 1.92

---

- Test description: Transport of geniposide across the HNEC monolayer
- Type: in vitro ADME, human
- Condition label: human, Ge 50 µg·mL^−1 +Mu 8.34 µg·mL^−1
Measurement label: Papp A→B at 180 min, 50 µg·mL^−1 (×10⁻⁶ cm/s)
Use ×10⁻⁶ cm/s as the unit, but write only the number.

Measured Papp A→B at 180 min, 50 µg·mL^−1 of COC(=O)C1=CO[C@@H](O[C@@H]2O[C@H](CO)[C@@H](O)[C@H](O)[C@H]2O)[C@@H]2C(CO)=CC[C@H]12 [geniposide, Geniposide] : 1.61

---

- Test description: Transport of geniposide across the HNEC monolayer
- Assay type: in vitro ADME, human
- Condition label: human, geniposide 50 µg·mL^−1 alone (control)
Measurement label: Papp A→B at 180 min, 50 µg·mL^−1 (×10⁻⁶ cm/s)
Use ×10⁻⁶ cm/s as the unit, but write only the number.

Measured Papp A→B at 180 min, 50 µg·mL^−1 of COC(=O)C1=CO[C@@H](O[C@@H]2O[C@H](CO)[C@@H](O)[C@H](O)[C@H]2O)[C@@H]2C(CO)=CC[C@H]12 [geniposide, Geniposide] : 1.22

---

- Test description: Transport of geniposide across the HNEC monolayer
- Type: in vitro ADME, human
- Condition label: human, Ge 50 µg·mL^−1 +Mu 4.17 µg·mL^−1
Measurement label: Papp B→A at 180 min, 50 µg·mL^−1

Measured Papp B→A at 180 min, 50 µg·mL^−1 of COC(=O)C1=CO[C@@H](O[C@@H]2O[C@H](CO)[C@@H](O)[C@H](O)[C@H]2O)[C@@H]2C(CO)=CC[C@H]12 [geniposide, Geniposide] : 1.6 ×10⁻⁶ cm/s

---

- Test description: Transport of geniposide across the HNEC monolayer
- Type: in vitro ADME, human
- Condition label: human, Ge 50 µg·mL^−1 +Bo 55.6 µg·mL^−1 Mu 8.34 µg·mL^−1
Measurement label: Papp B→A at 180 min, 50 µg·mL^−1 (×10⁻⁶ cm/s)
Use ×10⁻⁶ cm/s as the unit, but write only the number.

Measured Papp B→A at 180 min, 50 µg·mL^−1 of COC(=O)C1=CO[C@@H](O[C@@H]2O[C@H](CO)[C@@H](O)[C@H](O)[C@H]2O)[C@@H]2C(CO)=CC[C@H]12 [geniposide, Geniposide] : 1.92

---

- Test description: Transport of geniposide across the HNEC monolayer
- Type: in vitro ADME, human
- Condition label: human, geniposide 25 µg·mL^−1
Measurement label: Papp B→A at 180 min, 25 µg·mL^−1
Report field: quantity (unit follows the number).

Measured Papp B→A at 180 min, 25 µg·mL^−1 of COC(=O)C1=CO[C@@H](O[C@@H]2O[C@H](CO)[C@@H](O)[C@H](O)[C@H]2O)[C@@H]2C(CO)=CC[C@H]12 [geniposide, Geniposide] : 1.35 ×10⁻⁶ cm/s

---

- Test description: Transport of geniposide across the HNEC monolayer
- Format: in vitro ADME, human
- Condition label: human, Ge 50 µg·mL^−1 +Mu 4.17 µg·mL^−1
Measurement label: Papp A→B at 180 min, 50 µg·mL^−1 (×10⁻⁶ cm/s)
Use ×10⁻⁶ cm/s as the unit, but write only the number.

Measured Papp A→B at 180 min, 50 µg·mL^−1 of COC(=O)C1=CO[C@@H](O[C@@H]2O[C@H](CO)[C@@H](O)[C@H](O)[C@H]2O)[C@@H]2C(CO)=CC[C@H]12 [geniposide, Geniposide] : 1.15
